src = ChEMBL document CHEMBL1212911

# target: Serine/threonine-protein kinase D1 (Homo sapiens)
# Sequence (Q15139 whole entry): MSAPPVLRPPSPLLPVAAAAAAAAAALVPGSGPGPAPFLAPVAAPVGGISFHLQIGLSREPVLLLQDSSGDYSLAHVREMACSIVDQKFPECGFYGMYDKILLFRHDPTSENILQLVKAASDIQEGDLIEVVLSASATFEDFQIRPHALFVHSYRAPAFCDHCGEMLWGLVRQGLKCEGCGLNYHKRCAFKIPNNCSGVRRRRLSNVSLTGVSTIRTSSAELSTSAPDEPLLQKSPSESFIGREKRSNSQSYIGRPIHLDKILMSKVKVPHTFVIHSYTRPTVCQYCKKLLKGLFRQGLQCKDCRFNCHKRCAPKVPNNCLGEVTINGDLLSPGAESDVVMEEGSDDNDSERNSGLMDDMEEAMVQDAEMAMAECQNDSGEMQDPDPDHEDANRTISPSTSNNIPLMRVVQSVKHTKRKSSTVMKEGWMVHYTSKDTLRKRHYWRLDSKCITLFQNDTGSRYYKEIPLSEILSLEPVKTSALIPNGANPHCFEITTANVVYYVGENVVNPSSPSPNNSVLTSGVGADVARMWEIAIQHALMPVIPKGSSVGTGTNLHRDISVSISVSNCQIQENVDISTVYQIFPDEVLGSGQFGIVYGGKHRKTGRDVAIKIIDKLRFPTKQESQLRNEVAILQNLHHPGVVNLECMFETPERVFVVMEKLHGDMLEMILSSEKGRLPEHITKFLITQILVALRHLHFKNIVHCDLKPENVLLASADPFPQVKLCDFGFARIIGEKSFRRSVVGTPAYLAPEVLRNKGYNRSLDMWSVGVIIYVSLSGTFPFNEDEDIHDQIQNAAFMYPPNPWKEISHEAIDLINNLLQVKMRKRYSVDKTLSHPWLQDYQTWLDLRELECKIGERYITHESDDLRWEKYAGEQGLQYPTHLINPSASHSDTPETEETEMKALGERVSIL
# testDetails: Inhibition of PKD1 by TR-FRET assay
pIC50: −log10 of the molar value.
reportedProperty: pIC50

> print(dat)
                                   molecule  value
1  NC(=O)c1cc(-c2ccnc(NC3CCCCC3)c2)nc(N2CCCC(N)C2)c1 (stereo not drawn)   7.85
2  C[C@H]1CN(c2cc(C(N)=O)cc(-c3ccnc(NC4CCCCC4)c3)n2)CCN1   8.10
3  FC(F)c1cc(-c2ccnc(NC3CCCCC3)c2)nc(N2CCNCC2)c1   7.77

====

pEC50 values for the compounds below.
# target: Serine/threonine-protein kinase D1 (Homo sapiens)
# testDetails: Inhibition of PKD1 assessed as inhibition of HDAC5 neuclear export
pEC50: −log10 of the molar value.
reportedProperty: pEC50

> print(dat)
                                   compound  reportedproperty   value
1  O=C1NCc2c1cc(-c1ccnc(NC3CCCCC3)c1)nc2N1CCNCC1             pEC50  < 6.00
2  NC(=O)c1cc(-c2ccnc(NC3CCCCC3)c2)nc(N2CCCC(N)C2)c1 (centres undefined)             pEC50  < 6.00
3  CC1(C)CN(c2cc(C(N)=O)cc(-c3ccnc(NC4CCCCC4)c3)n2)CCN1             pEC50  < 6.00
4  NC(=O)c1cc(-c2ccnc(NC3CCOCC3)c2)nc(N2CCNCC2)c1             pEC50  < 6.00
5  CCNc1cc(-c2cc(C(N)=O)cc(N3CCNCC3)n2)ccn1             pEC50  < 6.00
6  C[C@H]1CN(c2cc(C(N)=O)cc(-c3ccnc(NC4CCCCC4)c3)n2)CCN1             pEC50    6.08
7  NC(=O)c1cc(-c2ccnc(Nc3ccccc3Cl)c2)nc(N2CCNCC2)c1             pEC50    6.32
8  NC(=O)c1cc(N[C@H]2CCNC2)nc(-c2ccnc(NC3CCCCC3)c2)c1             pEC50  < 6.00
9  c1cc(-c2cc(-c3cc[nH]n3)cc(N3CCNCC3)n2)cc(NC2CCCCC2)n1             pEC50    6.15
